method_description: Mean residence time in cynomolgus monkey at 3 mg/kg, po
Assay type: ADME, organism-based, Macaca fascicularis
Design: dose 3 mg/kg, route oral
recorded_conditions: in vivo
experimental_readout: MRT (h)
Number in h, nothing else.

Quick one: MRT for O=C(CCS(=O)(=O)c1ccc2cc(Cl)ccc2c1)N1CCN(c2cccc3nc(CO)cn23)CC1 ? 3.6

###

study_system: UniProtKB P08684
method_description: Inhibition of human CYP3A4 at 10 uM
Assay type: ADME
compounds and their reported inhibition at 10 µM
Only the number, expressed in %, is required.

Field: example entries. Status: answers known.
{"compound": "CC(O)Cc1cn2c(N3CCN(C(=O)CCS(=O)(=O)c4ccc5cc(Cl)ccc5c4)CC3)cccc2n1 (configuration not stated)", "experimental_readout": "inhibition at 10 µM", "observed_result": 33}
{"compound": "O=C(CCS(=O)(=O)c1ccc2cc(Cl)ccc2c1)N1CCN(c2cccc3nc(CO)cn23)CC1", "experimental_readout": "inhibition at 10 µM", "observed_result": 15}

Endpoint output: inhibition at 10 µM of CC(C)(O)Cc1cn2c(N3CCN(C(=O)CCS(=O)(=O)c4ccc5cc(Cl)ccc5c4)CC3)cccc2n1 . Value? 26

Same question for CC(O)c1cn2c(N3CCN(C(=O)CCS(=O)(=O)c4ccc5cc(Cl)ccc5c4)CC3)cccc2n1 (configuration not stated) please. 23

###

method_description: Mean residence time in cynomolgus monkey at 0.3 mg/kg, iv
Assay type: ADME, organism-based, Macaca fascicularis
Design: dose 0.3 mg/kg, route intravenous
recorded_conditions: in vivo
experimental_readout: MRT

Entry O=C(CCS(=O)(=O)c1ccc2cc(Cl)ccc2c1)N1CCN(c2cccc3nc(CO)cn23)CC1 : reported MRT = ? 1.97 h

###

method_description: Tmax in cynomolgus monkey at 3 mg/kg, po
Format: ADME, organism-based, Macaca fascicularis
Parameters: dose 3 mg/kg, route oral
recorded_conditions: in vivo
experimental_readout: Tmax (h)
Numbers only; they are read as h.

Value lookup for Tmax; key = O=C(CCS(=O)(=O)c1ccc2cc(Cl)ccc2c1)N1CCN(c2cccc3nc(CO)cn23)CC1 1.33

###

method_description: Cmax in cynomolgus monkey at 3 mg/kg, po
Type: ADME, organism-based, Macaca fascicularis
Set-up: dose 3 mg/kg, route oral
recorded_conditions: in vivo
experimental_readout: Cmax (ng/mL)
Output spec: scalar in ng/mL, unitless text.

# lookup: Cmax of O=C(CCS(=O)(=O)c1ccc2cc(Cl)ccc2c1)N1CCN(c2cccc3nc(CO)cn23)CC1 500

###

// values below are reported IC50
study_system: Coagulation factor X (Homo sapiens)

{"smi": "CC(=O)Nc1cnc2cccc(N3CCN(C(=O)CCS(=O)(=O)c4ccc5cc(Cl)ccc5c4)CC3)n12", "IC50": "24 nM"}

IC50 for NC(=O)Cc1cn2c(N3CCN(C(=O)CCS(=O)(=O)c4ccc5cc(Cl)ccc5c4)CC3)cccc2n1 ? 45 nM

Input CC(C)(O)c1cn2c(N3CCN(C(=O)CCS(=O)(=O)c4ccc5cc(Cl)ccc5c4)CC3)cccc2n1 18 nM

Note, next up: CN(C(=O)CCS(=O)(=O)c1ccc2cc(Cl)ccc2c1)C1CCN(c2cccc3nccn23)CC1 840 nM

Repeat with CCOC(=O)Cc1cn2c(N3CCN(C(=O)CCS(=O)(=O)c4ccc5cc(Cl)ccc5c4)CC3)cccc2n1 93 nM

Consider next the compound CC(C)(O)Cc1cn2c(N3CCN(C(=O)CCS(=O)(=O)c4ccc5cc(Cl)ccc5c4)CC3)cccc2n1 in the same way. 22 nM

###

Entries with reported pIC50 on Coagulation factor X (Homo sapiens, UniProt P00742)
Sequence (P00742 41-179 limits assumed): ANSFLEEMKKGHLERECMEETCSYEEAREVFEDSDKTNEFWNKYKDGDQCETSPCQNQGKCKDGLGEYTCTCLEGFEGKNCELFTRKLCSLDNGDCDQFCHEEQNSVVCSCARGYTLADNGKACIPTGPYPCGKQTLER
Sequence (P00742 235-488 limits assumed): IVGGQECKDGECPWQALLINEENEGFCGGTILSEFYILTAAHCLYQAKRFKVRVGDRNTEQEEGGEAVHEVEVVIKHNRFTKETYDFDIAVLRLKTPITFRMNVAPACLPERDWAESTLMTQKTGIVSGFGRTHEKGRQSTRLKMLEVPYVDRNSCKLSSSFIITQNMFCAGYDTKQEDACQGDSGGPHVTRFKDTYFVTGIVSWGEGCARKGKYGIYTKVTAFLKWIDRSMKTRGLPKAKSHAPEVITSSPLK
The value called pIC50 is obtained by taking minus log10 of the concentration in mol/L.

Some compounds with recorded pIC50:
{"compound": "O=C(CCS(=O)(=O)c1ccc2cc(Cl)ccc2c1)N1CCN(c2ccc3nccn3c2)CC1", "pIC50": 7.06}
{"compound": "CN(C)C(=O)Cc1cn2c(N3CCN(C(=O)CCS(=O)(=O)c4ccc5cc(Cl)ccc5c4)CC3)cccc2n1", "pIC50": 7.24}
{"compound": "O=C(CCS(=O)(=O)c1ccc2cc(Cl)ccc2c1)N1CCN(c2cccc3nccn23)CC1", "pIC50": 7.68}

// pIC50 lookup, key: CC(O)c1cn2c(N3CCN(C(=O)CCS(=O)(=O)c4ccc5cc(Cl)ccc5c4)CC3)cccc2n1 (stereo not given) 7.70

Also need O=C(CCS(=O)(=O)c1ccc2cc(Cl)ccc2c1)N1CCN(c2cccc3nc(CO)cn23)CC1 , thanks. 8.05

###

method_description: Total clearance in cynomolgus monkey at 0.3 mg/kg, iv
Format: ADME, organism-based, Macaca fascicularis
Design: dose 0.3 mg/kg, route intravenous
recorded_conditions: in vivo
experimental_readout: clearance (mL/min/kg)
Output spec: scalar in mL/min/kg, unitless text.

Tell me the measured clearance of O=C(CCS(=O)(=O)c1ccc2cc(Cl)ccc2c1)N1CCN(c2cccc3nc(CO)cn23)CC1 , please. 7.33

###

method_description: Drug concentration in cynomolgus monkey at 0.3 mg/kg, iv after 5 mins
Format: ADME, organism-based, Macaca fascicularis
Set-up: dose 0.3 mg/kg, route intravenous
recorded_conditions: in vivo, read-out: Drug uptake
experimental_readout: concentration at 5 min
I'd appreciate it if you included the unit after the number.

Returns the measured concentration at 5 min for the input molecule. Input: O=C(CCS(=O)(=O)c1ccc2cc(Cl)ccc2c1)N1CCN(c2cccc3nc(CO)cn23)CC1 540 ng/mL

###

study_system: CYP3A4 (Homo sapiens)
Sequence (P08684 whole entry): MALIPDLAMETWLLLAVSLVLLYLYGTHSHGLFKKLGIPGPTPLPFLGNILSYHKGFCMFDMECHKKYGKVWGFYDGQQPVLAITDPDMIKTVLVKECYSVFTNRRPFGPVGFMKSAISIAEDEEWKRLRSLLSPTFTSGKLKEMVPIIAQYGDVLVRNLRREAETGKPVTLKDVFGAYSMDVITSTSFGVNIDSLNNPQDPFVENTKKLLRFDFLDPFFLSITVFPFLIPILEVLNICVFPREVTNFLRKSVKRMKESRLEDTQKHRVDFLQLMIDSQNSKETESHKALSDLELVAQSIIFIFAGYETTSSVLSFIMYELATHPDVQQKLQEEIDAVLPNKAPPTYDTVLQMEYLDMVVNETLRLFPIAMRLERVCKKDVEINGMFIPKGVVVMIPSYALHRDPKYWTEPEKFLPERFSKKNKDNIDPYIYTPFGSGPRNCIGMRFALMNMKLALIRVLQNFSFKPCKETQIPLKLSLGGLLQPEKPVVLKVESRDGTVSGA
method_description: Inhibition of human CYP3A4 at 10 uM
Format: ADME
experimental_readout: inhibition at 10 µM (%)
Express the result in % but write the number alone.

Example results:
{"smi": "Cc1cn2c(N3CCN(C(=O)CCS(=O)(=O)c4ccc5cc(Cl)ccc5c4)CC3)cccc2n1", "inhibition at 10 µM, %": 58}
{"smi": "Nc1cnc2cccc(N3CCN(C(=O)CCS(=O)(=O)c4ccc5cc(Cl)ccc5c4)CC3)n12", "inhibition at 10 µM, %": 52}

Now examine the next entry.
Given the entry O=C(CCS(=O)(=O)c1ccc2cc(Cl)ccc2c1)N1CCN(c2cccc3nccn23)CC1 , report its measured inhibition at 10 µM. 45
